tested on: histone H2A.Z Lysine 7 acetylation in U2OS cells; assay: H2A.Z Lysine 7 Acetylation Biomarker Assay; assay type: cell-based; details: Homo sapiens, serum free medium, 24 hours incubation
pIC50: −log10 of the molar value.

| molecule | target.desc | limit.operator | pIC50 |
| --- | --- | --- | --- |
| COc1cccc(OC)c1S(=O)(=O)Nc1noc2cc(Cn3cc(C)cn3)cc(OC)c12 [Example 100] | histone H2A.Z Lysine 7 acetylation in U2OS cells | = | 4.82 |
| COc1cccc(OC)c1S(=O)(=O)Nc1noc2c(-c3cnn(C)c3)cc(C)cc12 [Example 102] | histone H2A.Z Lysine 7 acetylation in U2OS cells | < | 4.40 |
| COc1cc(Cn2cccn2)cc2onc(NS(=O)(=O)c3cccc4cc(C)cnc34)c12 [Example 99] | histone H2A.Z Lysine 7 acetylation in U2OS cells | = | 4.94 |

* * *

Reported Ki values for the following compounds.
molecular target: KAT8 (Homo sapiens (Human), UniProt Q9H7Z6); assay: KAT assay (SAMDI mass spectrometry), KAT8; format: biochemical; details: read-out: KAT8 Ki at 1 μM AcCoA
Sequence (Q9H7Z6 whole entry): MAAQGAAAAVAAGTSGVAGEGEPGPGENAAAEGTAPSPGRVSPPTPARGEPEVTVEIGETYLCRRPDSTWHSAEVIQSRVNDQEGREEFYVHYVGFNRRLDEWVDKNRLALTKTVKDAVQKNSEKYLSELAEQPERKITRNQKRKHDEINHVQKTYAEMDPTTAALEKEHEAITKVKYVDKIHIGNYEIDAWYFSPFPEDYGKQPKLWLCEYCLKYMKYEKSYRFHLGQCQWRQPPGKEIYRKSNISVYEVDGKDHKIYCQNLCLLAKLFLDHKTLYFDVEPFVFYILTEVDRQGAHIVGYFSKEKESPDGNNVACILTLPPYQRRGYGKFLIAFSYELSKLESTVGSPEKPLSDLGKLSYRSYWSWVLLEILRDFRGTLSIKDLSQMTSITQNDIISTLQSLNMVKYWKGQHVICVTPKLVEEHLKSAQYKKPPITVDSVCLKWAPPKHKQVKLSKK
measurement.label: Ki (µM)

| compound | number |
| --- | --- |
| COc1cc(Cn2cccn2)cc2onc(NS(=O)(=O)c3cccc4c(C)ccnc34)c12 [Example 61] | 0.54 |
| COc1ccc(C)cc1S(=O)(=O)Nc1noc2cc(Cn3cccn3)cc(OC)c12 [Example 17] | 0.22 |
| CCc1cc(S(=O)(=O)Nc2noc3cc(Cn4cccn4)cc(OC)c23)c(OC)cc1OC [Example 15] | 0.17 |
| COc1cccc(OC)c1S(=O)(=O)Nc1noc2cc(Cn3cccn3)c(Br)cc12 [Example 92] | 0.24 |
| COc1cccc(OC)c1S(=O)(=O)Nc1noc2cc(Cn3cccn3)c(C)cc12 [Example 27] | 0.53 |
| CCc1cc(Cn2cccn2)cc2onc(NS(=O)(=O)c3c(OC)cccc3OC)c12 [Example 95] | 3.26 |
| COc1cc2c(cc1S(=O)(=O)Nc1noc3cc(Cn4cccn4)cc(OC)c13)CCC2 [Example 29] | 1.01 |
| COc1cccc(OC)c1S(=O)(=O)Nc1noc2cc(Cn3cc(F)cn3)cc(OC)c12 [Example 7] | 4.46 |

* * *

Recorded IC50 for the following compounds
system: histone H3K23 acetylation in U2OS cells; experiment: Histone H3 Lysine 23 Acetylation Biomarker Assay; format: cell-based; conditions: Homo sapiens, 24 hours incubation
measurement.label: IC50 (nM)

| compound | number |
| --- | --- |
| COc1cccc(OC)c1S(=O)(=O)Nc1noc2cc(Cn3cccn3)cc(OC)c12 [Example 98] | 0.6 |
| COc1cccc(OC)c1S(=O)(=O)Nc1noc2cc(Cn3cc(C)cn3)cc(OC)c12 [Example 100] | 46 |

* * *

molecular target: UniProt Q8WYB5; assay: KAT assay (SAMDI mass spectrometry), KAT6B; assay type: biochemical; conditions: 25 μM AcCoA; read-out: KAT6b Ki at 25 μM AcCoA
Sequence (Q8WYB5 whole entry): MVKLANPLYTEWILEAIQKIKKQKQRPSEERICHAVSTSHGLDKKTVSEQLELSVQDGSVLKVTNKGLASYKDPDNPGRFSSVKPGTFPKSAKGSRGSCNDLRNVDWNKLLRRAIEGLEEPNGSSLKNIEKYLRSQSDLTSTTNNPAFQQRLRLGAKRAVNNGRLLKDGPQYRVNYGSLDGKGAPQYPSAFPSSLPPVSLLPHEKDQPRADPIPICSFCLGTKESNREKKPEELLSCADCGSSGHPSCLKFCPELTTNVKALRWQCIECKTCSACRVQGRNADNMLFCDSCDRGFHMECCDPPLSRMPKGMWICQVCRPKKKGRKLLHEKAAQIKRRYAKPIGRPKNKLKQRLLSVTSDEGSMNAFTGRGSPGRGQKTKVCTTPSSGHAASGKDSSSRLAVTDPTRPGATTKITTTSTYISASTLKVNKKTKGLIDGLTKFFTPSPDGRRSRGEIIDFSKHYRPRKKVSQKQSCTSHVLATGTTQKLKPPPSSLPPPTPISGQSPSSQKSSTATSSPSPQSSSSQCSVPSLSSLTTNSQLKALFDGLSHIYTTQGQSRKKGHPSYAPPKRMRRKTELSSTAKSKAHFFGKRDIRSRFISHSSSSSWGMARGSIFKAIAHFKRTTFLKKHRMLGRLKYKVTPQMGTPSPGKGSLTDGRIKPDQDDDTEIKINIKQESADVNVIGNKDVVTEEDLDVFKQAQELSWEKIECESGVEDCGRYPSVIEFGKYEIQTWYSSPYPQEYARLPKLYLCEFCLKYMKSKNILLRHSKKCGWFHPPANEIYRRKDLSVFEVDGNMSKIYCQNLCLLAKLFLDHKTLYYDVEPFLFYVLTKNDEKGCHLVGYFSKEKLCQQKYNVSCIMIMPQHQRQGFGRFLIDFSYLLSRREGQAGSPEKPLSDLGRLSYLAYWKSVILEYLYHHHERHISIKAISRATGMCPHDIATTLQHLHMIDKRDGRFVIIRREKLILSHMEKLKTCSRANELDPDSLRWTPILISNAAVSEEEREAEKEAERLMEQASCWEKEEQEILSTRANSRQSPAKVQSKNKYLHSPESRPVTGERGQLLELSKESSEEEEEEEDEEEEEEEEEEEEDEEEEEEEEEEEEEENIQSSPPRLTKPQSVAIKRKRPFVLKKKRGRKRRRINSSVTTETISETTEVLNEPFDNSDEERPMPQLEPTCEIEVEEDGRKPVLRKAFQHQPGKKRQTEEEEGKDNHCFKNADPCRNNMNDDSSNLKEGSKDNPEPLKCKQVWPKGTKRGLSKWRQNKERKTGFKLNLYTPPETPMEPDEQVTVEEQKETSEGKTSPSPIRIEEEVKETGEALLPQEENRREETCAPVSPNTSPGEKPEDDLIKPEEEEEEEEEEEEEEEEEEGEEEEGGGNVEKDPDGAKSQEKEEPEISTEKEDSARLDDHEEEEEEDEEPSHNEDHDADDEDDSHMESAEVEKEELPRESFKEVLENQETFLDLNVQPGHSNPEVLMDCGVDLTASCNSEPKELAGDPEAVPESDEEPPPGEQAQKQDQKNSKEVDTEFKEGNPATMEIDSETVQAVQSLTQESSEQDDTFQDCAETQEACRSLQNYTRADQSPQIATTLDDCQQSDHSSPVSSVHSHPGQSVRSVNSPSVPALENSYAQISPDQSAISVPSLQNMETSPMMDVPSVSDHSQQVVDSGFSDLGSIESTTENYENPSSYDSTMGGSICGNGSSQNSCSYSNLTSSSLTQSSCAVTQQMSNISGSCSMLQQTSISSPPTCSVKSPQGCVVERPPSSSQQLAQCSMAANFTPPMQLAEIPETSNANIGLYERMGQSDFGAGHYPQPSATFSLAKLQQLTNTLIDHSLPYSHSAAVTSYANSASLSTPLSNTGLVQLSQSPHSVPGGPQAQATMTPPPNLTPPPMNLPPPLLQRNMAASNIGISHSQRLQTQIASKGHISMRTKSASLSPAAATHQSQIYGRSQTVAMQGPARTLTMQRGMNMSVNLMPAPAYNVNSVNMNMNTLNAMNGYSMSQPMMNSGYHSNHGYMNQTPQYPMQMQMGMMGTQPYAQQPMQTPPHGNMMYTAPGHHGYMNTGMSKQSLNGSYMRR
pKi: −log10 of the molar value.
measurement.label: pKi

| entry.smiles | number |
| --- | --- |
| COc1ccccc1S(=O)(=O)Nc1noc2cc(Cn3cccn3)cc(OC)c12 | 8.81 |
| COc1cc(Cn2cccn2)cc2onc(NS(=O)(=O)c3ccc(C)cc3F)c12 | 7.92 |
| COc1cc(Cn2cccn2)cc2onc(NS(=O)(=O)c3cccc4c(C)ccnc34)c12 | 8.81 |
| COc1cc(Cn2cccn2)cc2onc(NS(=O)(=O)c3cc(C)cc(F)c3)c12 | 7.86 |
| CCc1ccc(OC)c(S(=O)(=O)Nc2noc3cc(Cn4cccn4)c(F)cc23)c1 | 8.68 |
| COCc1ccc(OC)c(S(=O)(=O)Nc2noc3cc(Cn4cccn4)c(F)cc23)c1 | 7.37 |
| COc1cc(Cn2cccn2)cc2onc(NS(=O)(=O)c3c(C)ccc4cccnc34)c12 | 8.87 |
| COc1ccc2c(c1S(=O)(=O)Nc1noc3cc(Cn4cccn4)cc(OC)c13)CCCC2 | 8.94 |
